Value source: ChEMBL document CHEMBL3861968

- system-tested: Heat sensitive channel TRPV3 (Rattus norvegicus) (UniProt Q4QYD9)
- Sequence (Q4QYD9 as listed by the source): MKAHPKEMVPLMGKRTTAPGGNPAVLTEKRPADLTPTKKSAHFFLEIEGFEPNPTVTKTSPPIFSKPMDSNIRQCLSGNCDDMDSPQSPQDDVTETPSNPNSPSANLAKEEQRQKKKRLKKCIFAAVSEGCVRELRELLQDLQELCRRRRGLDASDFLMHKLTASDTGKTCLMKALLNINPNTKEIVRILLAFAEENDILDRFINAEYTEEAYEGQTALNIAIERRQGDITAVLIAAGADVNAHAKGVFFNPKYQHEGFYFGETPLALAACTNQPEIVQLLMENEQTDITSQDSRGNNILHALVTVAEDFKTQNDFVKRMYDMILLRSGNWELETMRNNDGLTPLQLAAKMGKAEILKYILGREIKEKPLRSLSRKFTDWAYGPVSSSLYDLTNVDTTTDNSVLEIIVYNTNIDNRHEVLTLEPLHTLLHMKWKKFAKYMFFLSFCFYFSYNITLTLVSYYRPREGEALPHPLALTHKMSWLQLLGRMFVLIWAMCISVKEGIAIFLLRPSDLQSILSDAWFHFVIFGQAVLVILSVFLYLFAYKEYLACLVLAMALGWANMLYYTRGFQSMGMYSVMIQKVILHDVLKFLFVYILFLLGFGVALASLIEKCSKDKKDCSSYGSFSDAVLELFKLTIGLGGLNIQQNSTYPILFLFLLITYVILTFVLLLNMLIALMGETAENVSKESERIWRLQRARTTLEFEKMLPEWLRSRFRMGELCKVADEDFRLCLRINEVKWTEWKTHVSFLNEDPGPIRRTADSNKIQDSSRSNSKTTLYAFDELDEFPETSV
- test-name: Activation of rat TRPV3 overexpressed in HEK293 cells assessed as increase in 2-aminoethoxydiphenyl borate-induced intracellular calcium concentration by Fluo-4AM dye-based spectrofluorometry relative to ionomycin
- Type: cell-based
assay-metric: Emax

Recorded Emax for "C/C1=C\C[C@]2(C(C)C)CC[C@@](C)(O2)[C@@H](OC(=O)Cc2ccccc2)CC/C(C)=C/CC1" , please?
25.6%

Record request: Emax value, item "CC(=O)O[C@H]1CC[C@@]2(C)O[C@H]2CC/C(C)=C/C[C@]2(C(C)C)CC[C@@]1(C)O2"
31.6%

Could you share which Emax value was measured for "C/C1=C\CC[C@]2(C)O[C@@H]2C[C@]2(C(C)C)CC[C@@](C)(O2)[C@@H](O)CC1" ?
27.2%

What measured Emax goes with "CC(=O)O[C@H]1CC/C(C)=C/CC/C(C)=C/C[C@]2(C(C)C)CC[C@@]1(C)O2" ?
43.4%

# get_value(readout='Emax', item= "C/C1=C\CC/C(C)=C/C[C@](O)(C(C)C)CC/C(C)=C/CC1" )
62.4%

Please give the measured Emax for this molecule: "CC(=O)O[C@H]1CC/C(C)=C/CC[C@]2(C)O[C@@H]2C[C@]2(C(C)C)CC[C@@]1(C)O2"
57.7%

Returns the measured Emax for the input molecule. Input: "Cc1ccc(C(C)C)c(O)c1"
49.4%

Would you kindly share the measured Emax for "C/C1=C\C[C@]2(C(C)C)CC[C@@](C)(O2)[C@H](O)CC/C(C)=C/CC1" ?
38%

Consider the molecule "C/C1=C\C[C@]2(C(C)C)CC[C@@](C)(O2)[C@@H](O)CC/C(C)=C/CC1" and give its measured Emax.
65.1%

For the molecule shown here, "CC1=C2CC/C(C)=C/CC[C@]3(C)O[C@@H]3CC/C(C)=C/[C@@H]2OC1=O" , give the reported Emax.
21.3%

---

Please go through the items and note down their EC50.
- system-tested: Heat sensitive channel TRPV3 (Rattus norvegicus, UniProt Q4QYD9)
- test-name: Activation of rat TRPV3 overexpressed in HEK293 cells assessed as increase in 2-aminoethoxydiphenyl borate-induced intracellular calcium concentration by Fluo-4AM dye-based spectrofluorometry
Enter your answer as a number in µM; do not include the unit.

Using the record for "CC1=C2CC/C(C)=C/CC[C@]3(C)O[C@@H]3CC/C(C)=C/[C@@H]2OC1=O" , report its EC50.
30.1

// lookup EC50 for "Cc1ccc(C(C)C)c(O)c1"
29

Which EC50 reading was recorded for the compound "C/C1=C\CC/C(C)=C/C[C@](O)(C(C)C)CC/C(C)=C/CC1" ?
0.17

Data request, read-out EC50, for "CC(=O)O[C@H]1CC[C@@]2(C)O[C@H]2CC/C(C)=C/C[C@]2(C(C)C)CC[C@@]1(C)O2"
8.6

Could you share which EC50 value was measured for "CC(=O)O[C@H]1CC/C(C)=C/CC[C@]2(C)O[C@@H]2C[C@]2(C(C)C)CC[C@@]1(C)O2" ?
8.8

For "CC(=O)O[C@H]1CC/C(C)=C/CC/C(C)=C/C[C@]2(C(C)C)CC[C@@]1(C)O2" , what is its reported EC50?
1.4

Using the record for "C/C1=C\C[C@]2(C(C)C)CC[C@@](C)(O2)[C@@H](OC(=O)Cc2ccccc2)CC/C(C)=C/CC1" , report its EC50.
1.2

Which EC50 reading was recorded for the compound "C/C1=C\CC[C@]2(C)O[C@@H]2C[C@]2(C(C)C)CC[C@@](C)(O2)[C@@H](O)CC1" ?
25.4

State the recorded EC50 for this entry: "C/C1=C\C[C@]2(C(C)C)CC[C@@](C)(O2)[C@@H](O)CC/C(C)=C/CC1"
2.1

Consider the compound shown here: "C/C1=C\C[C@]2(C(C)C)CC[C@@](C)(O2)[C@H](O)CC/C(C)=C/CC1" What is its recorded EC50?
7.3

---

- system-tested: Heat sensitive channel TRPV3 (Rattus norvegicus)
- test-name: Antagonist activity at rat TRPV3 overexpressed in HEK293 cells assessed as inhibition of thymol-induced increase in intracellular Ca2+ levels preincubated for 5 mins prior to thymol-stimulation by Fluo-4AM dye-based spectrofluorometry
pIC50: −log10 of the molar value.
# if value of pIC50 reaches 5, tag t; if it stays below, tag f

Is reported pIC50 greater than or equal to 5 here: "CC1=C2CC/C(C)=C/CC[C@]3(C)O[C@@H]3CC/C(C)=C/[C@@H]2OC1=O"
f

For this molecule, is measured pIC50 5 or higher? "C/C1=C\CC/C(C)=C/C[C@](O)(C(C)C)CC/C(C)=C/CC1"
t

Assess whether reported pIC50 for "CC(=O)O[C@H]1CC/C(C)=C/CC/C(C)=C/C[C@]2(C(C)C)CC[C@@]1(C)O2" sits at 5 or higher.
t

Could you please find out whether "CC(=O)O[C@H]1CC[C@@]2(C)O[C@H]2CC/C(C)=C/C[C@]2(C(C)C)CC[C@@]1(C)O2" has pIC50 that meets 5 or exceeds it?
f

Is it the case that "C/C1=C\C[C@]2(C(C)C)CC[C@@](C)(O2)[C@@H](O)CC/C(C)=C/CC1" has pIC50 reaching or exceeding 5?
t

Does pIC50 meet or surpass 5 for "C/C1=C\CC[C@]2(C)O[C@@H]2C[C@]2(C(C)C)CC[C@@](C)(O2)[C@@H](O)CC1" ?
f

Test whether the molecule "C/C1=C\C[C@]2(C(C)C)CC[C@@](C)(O2)[C@@H](OC(=O)Cc2ccccc2)CC/C(C)=C/CC1" records pIC50 of 5 or higher.
f
